Recorded EC50 for neutralizing IL-5-induced TF-1 cell proliferation, one value per entry.
# Experimental target: human recombinant IL-5 protein with a histidine tag at carboxyl terminal (human) (UniProt P05113)
# Protocol summary: cell-based or functional assay
Measurement kind: EC50 for neutralizing IL-5-induced TF-1 cell proliferation

- Binder: "Fc fusion protein of anti-IL-5 single-domain antibody 4H2 (Fc fusion, not shown: a dimerising Fc or GST) chain (part 1 of 2): QVQLVESEGGSVQAGGSLRLSCAVSGITSSTACMGWFRQSPGKEREGSLATIYDGSISYADSVKGRFTISVDNAKNILYLQMNNLKPEDTAMYYCAAAKYCMFWSDPSYWGQGTQVTVSS chain (part 2 of 2): HHHHHH"
  Recorded value: 0.189
- Binder: "Fc fusion protein of anti-IL-5 single-domain antibody 3G12 (Fc fusion, not shown: a dimerising Fc or GST) chain (part 1 of 2): QVQLVESGGGSVQAGGSLRLSCVASGLTLNDVSMAWFRQAPGKEREEVAGIDIDGLISYADSVKGRFTISKDNAQNTLYLQMNSLKPEDTAMYSCAAVRLYFSSSRNQYKYEGQGTQVTVSS chain (part 2 of 2): HHHHHH"
  Recorded value: 2.09
- Binder: "Fc fusion protein of anti-IL-5 single-domain antibody 2G6 (Fc fusion, not shown: a dimerising Fc or GST) chain (part 1 of 2): QVQLVESGGGSVQAGGSLRLSCAASGITSSTSCMGWFRQSPGKEREGSLATIYDGNISYADSVKGRFTISVDNAKNILYLQMNNLKPEDTAMYYCAAAKYCMFWSDPSYWGQGTQVTVSS chain (part 2 of 2): HHHHHH"
  Recorded value: 0.188
- Binder: "Fc fusion protein of anti-IL-5 single-domain antibody 2F7 (Fc fusion, not shown: a dimerising Fc or GST) chain (part 1 of 2): QVQLVESGGGSVQAGGSLRLSCAASGITASTSCMGWFRQSPGKEREGSLATIYDGSTSYADSVKGRFTISVDNAKNILYLQMNNLKPADTAMYYCAAAKYCMFWSHPSYWGQGTQVTVSS chain (part 2 of 2): HHHHHH"
  Recorded value: 0.15
- Binder: "Fc fusion protein of anti-IL-5 single-domain antibody 4C3 (Fc fusion, not shown: a dimerising Fc or GST) chain (part 1 of 2): QVQLVESGGGSVQAGGSLRLSCVASGLTLNDVSMAWFRQAPGKEREEVAGIDIDGLISYADPVKGRFTISKDNAQNTMYLQMNSLKPEDTAMYSCAAVRLYFSSSRNQYKYEGQGTQVTVSS chain (part 2 of 2): HHHHHH"
  Recorded value: 4.4
- Binder: "humanized Fc-fused single-domain antibody 1B3-V4 (Fc fusion, not shown: a dimerising Fc or GST) chain (part 1 of 2): QVQLVESGGGSVQAGGSLRLSCAASGITASTSCMGWFRQSPGKEREGSLATIYDASTSYADSVKGRFTISRDNAKNILYLQMNNLRAEDTAVYYCAAARYCMFWSHPSYWGQGTQVTVSS chain (part 2 of 2): HHHHHH"
  Recorded value: 0.237
- Binder: "Fc fusion protein of anti-IL-5 single-domain antibody 1B8 (Fc fusion, not shown: a dimerising Fc or GST) chain (part 1 of 2): QVQLVESGGGSVQAGGSLRLSCAASGITASTSCMGWFRQSPGKEREGSLATIYDGSTSYADSVKGQFTISVDNAKNILYLQMNNLKPEDTAMYYCAAAKYCMFWSHPSYWGQGTQVTVSS chain (part 2 of 2): HHHHHH"
  Recorded value: 0.175
- Binder: "humanized Fc-fused single-domain antibody 1B3-V1 (Fc fusion, not shown: a dimerising Fc or GST) chain (part 1 of 2): QVQLVESGGGLVQPGGSLRLSCAASGITASTSCMGWFRQAPGKGLEAVAATIYDGSTYYADSVKGRFTISRDNSKNTLYLQMNSLRAEDTAVYYCAAARYCMFWSHPSYWGQGTLVTVSS chain (part 2 of 2): HHHHHH"
  Recorded value: 2.82
- Binder: "Fc fusion protein of anti-IL-5 single-domain antibody 1F4 (Fc fusion, not shown: a dimerising Fc or GST) chain (part 1 of 2): QVQLVESGGGSAQAGGSLRLSCAASGNTLDLMAWFRQAPGKEREGVAGIYSSGTTYYADSVKGRFTVSRDNAKNTVYLQMNSLKPEDAAMYYCAAKVSWYGRWYQSETYEYWGQGTQVTVSS chain (part 2 of 2): HHHHHH"
  Recorded value: 0.1

The reported measurements were obtained from patent US20230235039A1.
